Taken from patent US5688787A.

The entries below are paired with their reported change in vivo at 50 mg/kg.
- Tested on: Hyperlipidemic Hamster
- ASSAY NOTES: In Vivo Assay of Hypolipidemic Agents Using the Hyperlipidemic Hamster
- MEASUREMENT SETUP: Mesocricetus auratus, po, 168 h, 50 mg/kg once daily oral, 7 days; percent change versus control, negative = lowering; read-out: % Reduction (in vivo) Cholest. Esters
Write the number in % without appending the unit.

For orientation, consider the following solved cases.
MOLECULE: COc1ccc([C@@H]2[C@@H](Cc3ccc4ccccc4c3)C(=O)N2c2ccccc2)cc1 (relative stereo) [Example 7AO]
UNIT SYMBOL: %
change in vivo at 50 mg/kg: -90

MOLECULE: COc1ccc(N2C(=O)[C@H](CCCc3ccccc3)[C@H]2c2ccc(OC)c(C)c2)cc1 (relative stereo) [Example 7Q]
UNIT SYMBOL: %
change in vivo at 50 mg/kg: 0

MOLECULE: COc1ccc(N2C(=O)[C@H](CCCc3ccccc3)[C@@H]2c2ccc(OCc3ccccc3)cc2)cc1 (relative stereo) [Example 1BN]
UNIT SYMBOL: %
change in vivo at 50 mg/kg: 0

MOLECULE: COc1ccc(N2C(=O)[C@@](Cc3ccccc3)(c3ccccc3)[C@@H]2c2ccccc2)cc1 (relative stereo) [Example 1X]
UNIT SYMBOL: %
change in vivo at 50 mg/kg: 0

MOLECULE: COc1ccc([C@@H]2[C@@H](CCCc3ccccc3)C(=O)N2c2ccccc2)cn1 (relative stereo) [Example 7O]
UNIT SYMBOL: %
change in vivo at 50 mg/kg: -20

Ask: Value wanted: change in vivo at 50 mg/kg (Hyperlipidemic Hamster) of entry COc1ccc([C@@H]2N(c3ccc(OC)cc3)C(=O)[C@@]2(Cc2ccccc2)c2ccccc2)cc1 (relative stereo) [Example 7AH]
Result: 16

Ask: Please answer likewise for CC[C@@]1(CCCc2ccccc2)C(=O)N(c2c(OC)cc(OC)cc2OC)[C@H]1c1ccccc1 (relative stereo) [Example 3D]
Result: 0
